Where these numbers come from: patent US9187472B2

- ASSAY_SYSTEM: NAMPT (human, recombinant, C-terminally His-tagged) (Homo sapiens, UniProt P43490)
- Sequence (P43490 whole entry): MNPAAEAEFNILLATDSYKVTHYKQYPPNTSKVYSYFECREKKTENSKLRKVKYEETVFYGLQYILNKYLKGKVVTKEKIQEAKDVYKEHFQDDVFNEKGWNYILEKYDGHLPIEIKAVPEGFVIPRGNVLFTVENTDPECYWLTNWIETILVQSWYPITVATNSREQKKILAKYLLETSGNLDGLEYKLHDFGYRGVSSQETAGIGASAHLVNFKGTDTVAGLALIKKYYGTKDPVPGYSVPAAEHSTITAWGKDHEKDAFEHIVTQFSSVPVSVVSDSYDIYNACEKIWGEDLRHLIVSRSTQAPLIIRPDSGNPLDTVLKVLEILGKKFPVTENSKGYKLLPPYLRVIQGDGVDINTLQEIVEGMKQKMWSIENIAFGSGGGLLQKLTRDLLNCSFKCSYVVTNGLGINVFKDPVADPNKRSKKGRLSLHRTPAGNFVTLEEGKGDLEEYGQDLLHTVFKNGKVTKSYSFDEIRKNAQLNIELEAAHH
- PROTOCOL: Time-Resolved Fluorescence Resonance Energy Transfer (TR-FRET) Binding Assay of NAMPT
- CONDITION_CONTEXT: without substrates; 6.8 nM NAMPT, 200 nM probe, 3 hours equilibration
ASSAY_READOUT: IC50

>  <COMPOUND>
COCCOCC(=O)N1CC=C(c2ccc(NC(=O)Nc3ccc4nccn4c3)cc2)CC1 [Example 32]

>  <ASSAY_SYSTEM>
NAMPT (human, recombinant, C-terminally His-tagged) (Homo sapiens, UniProt P43490)

>  <VALUE_OBSERVED>
906 nM

$$$$
>  <COMPOUND>
O=C(NCc1ccn2ccnc2c1)c1cnc(-c2ccccc2)s1 [Example 361]

>  <ASSAY_SYSTEM>
NAMPT (human, recombinant, C-terminally His-tagged) (Homo sapiens, UniProt P43490)

>  <VALUE_OBSERVED>
5030 nM

$$$$
>  <COMPOUND>
O=C(NCc1ccn2ccnc2c1)c1ccc(O[C@H]2CCN(C(=O)C3CC3)C2)cc1 [Example 352]

>  <ASSAY_SYSTEM>
NAMPT (human, recombinant, C-terminally His-tagged) (Homo sapiens, UniProt P43490)

>  <VALUE_OBSERVED>
> 10000 nM

$$$$
>  <COMPOUND>
O=C(NCc1ccn2ccnc2c1)c1ccc(OC2CCN(C(=O)CC3CC3)CC2)cc1 [Example 414]

>  <ASSAY_SYSTEM>
NAMPT (human, recombinant, C-terminally His-tagged) (Homo sapiens, UniProt P43490)

>  <VALUE_OBSERVED>
2630 nM

$$$$
>  <COMPOUND>
O=C(NCc1ccn2ccnc2c1)c1ccc(OC2CCN(C(=O)C3COCCO3)CC2)cc1 (centres unmarked) [Example 421]

>  <ASSAY_SYSTEM>
NAMPT (human, recombinant, C-terminally His-tagged) (Homo sapiens, UniProt P43490)

>  <VALUE_OBSERVED>
2450 nM

$$$$
>  <COMPOUND>
CC(C)OCC1CN(c2ncc(C(=O)NCc3ccn4ccnc4c3)s2)C(=O)O1 (centres unmarked) [Example 249]

>  <ASSAY_SYSTEM>
NAMPT (human, recombinant, C-terminally His-tagged) (Homo sapiens, UniProt P43490)

>  <VALUE_OBSERVED>
817 nM

$$$$
>  <COMPOUND>
O=C(NCc1ccn2ccnc2c1)c1ccc(C2CCN(C(=O)c3cc(F)cc(F)c3)C2)cc1 (centres unmarked) [Example 599]

>  <ASSAY_SYSTEM>
NAMPT (human, recombinant, C-terminally His-tagged) (Homo sapiens, UniProt P43490)

>  <VALUE_OBSERVED>
527 nM

$$$$
>  <COMPOUND>
COCC(C)C(=O)N1CCC(Oc2ccc(C(=O)NCc3ccc4nccn4c3)cc2)CC1 (centres unmarked) [Example 169]

>  <ASSAY_SYSTEM>
NAMPT (human, recombinant, C-terminally His-tagged) (Homo sapiens, UniProt P43490)

>  <VALUE_OBSERVED>
375 nM

$$$$
>  <COMPOUND>
O=C(NCc1ccn2ccnc2c1)Nc1ccc(C2CCN(C(=O)c3ccc(F)cc3F)CC2)cc1 [Example 722]

>  <ASSAY_SYSTEM>
NAMPT (human, recombinant, C-terminally His-tagged) (Homo sapiens, UniProt P43490)

>  <VALUE_OBSERVED>
39.4 nM

$$$$
>  <COMPOUND>
CC(C)C[C@@H](NC(=O)C1CC1)c1ccc(C(=O)NCc2ccn3ccnc3c2)s1 [Example 685]

>  <ASSAY_SYSTEM>
NAMPT (human, recombinant, C-terminally His-tagged) (Homo sapiens, UniProt P43490)

>  <VALUE_OBSERVED>
1250 nM

$$$$
>  <COMPOUND>
CC(C)Cn1cc(-c2ccc(C(=O)NCc3cn4ccnc4cn3)o2)cn1 [Example 819]

>  <ASSAY_SYSTEM>
NAMPT (human, recombinant, C-terminally His-tagged) (Homo sapiens, UniProt P43490)

>  <VALUE_OBSERVED>
19.9 nM

$$$$
>  <COMPOUND>
O=C(NCc1ccn2ccnc2c1)c1cnc(C2CCN(C(=O)c3ccccc3)C2)s1 (centres unmarked) [Example 807]

>  <ASSAY_SYSTEM>
NAMPT (human, recombinant, C-terminally His-tagged) (Homo sapiens, UniProt P43490)

>  <VALUE_OBSERVED>
628 nM

$$$$
>  <COMPOUND>
CC(C)OCC(=O)N1CCC(c2ccc(C(=O)NCc3ccn4ccnc4c3)cc2)C1 (centres unmarked) [Example 371]

>  <ASSAY_SYSTEM>
NAMPT (human, recombinant, C-terminally His-tagged) (Homo sapiens, UniProt P43490)

>  <VALUE_OBSERVED>
1440 nM

$$$$
>  <COMPOUND>
CC(C)C(=O)N1CC(c2ccc(NC(=O)NCc3ccn4ccnc4c3)cc2)C1 [Example 452]

>  <ASSAY_SYSTEM>
NAMPT (human, recombinant, C-terminally His-tagged) (Homo sapiens, UniProt P43490)

>  <VALUE_OBSERVED>
293 nM

$$$$
>  <COMPOUND>
O=C(NCc1ccn2ccnc2c1)c1cnc(C2CCN(C(=O)c3ccccc3F)CC2)s1 [Example 802]

>  <ASSAY_SYSTEM>
NAMPT (human, recombinant, C-terminally His-tagged) (Homo sapiens, UniProt P43490)

>  <VALUE_OBSERVED>
35.9 nM

$$$$
>  <COMPOUND>
O=C(Nc1ccc(C2CCN(C(=O)CC3CCCO3)CC2)cc1)Nc1ccc2nccn2c1 (centres unmarked) [Example 111]

>  <ASSAY_SYSTEM>
NAMPT (human, recombinant, C-terminally His-tagged) (Homo sapiens, UniProt P43490)

>  <VALUE_OBSERVED>
263 nM

$$$$
>  <COMPOUND>
COCCC(=O)N(Cc1ccc(C#N)cc1)c1ncc(C(=O)Nc2ccc3nccn3c2)s1 [Example 54]

>  <ASSAY_SYSTEM>
NAMPT (human, recombinant, C-terminally His-tagged) (Homo sapiens, UniProt P43490)

>  <VALUE_OBSERVED>
363 nM

$$$$
